- target-or-test-system: SARM1 (ARM-SAM-TIR, full length SARM1) (Homo sapiens)
- Sequence (Q6SZW1 with tags, fused parts or gaps): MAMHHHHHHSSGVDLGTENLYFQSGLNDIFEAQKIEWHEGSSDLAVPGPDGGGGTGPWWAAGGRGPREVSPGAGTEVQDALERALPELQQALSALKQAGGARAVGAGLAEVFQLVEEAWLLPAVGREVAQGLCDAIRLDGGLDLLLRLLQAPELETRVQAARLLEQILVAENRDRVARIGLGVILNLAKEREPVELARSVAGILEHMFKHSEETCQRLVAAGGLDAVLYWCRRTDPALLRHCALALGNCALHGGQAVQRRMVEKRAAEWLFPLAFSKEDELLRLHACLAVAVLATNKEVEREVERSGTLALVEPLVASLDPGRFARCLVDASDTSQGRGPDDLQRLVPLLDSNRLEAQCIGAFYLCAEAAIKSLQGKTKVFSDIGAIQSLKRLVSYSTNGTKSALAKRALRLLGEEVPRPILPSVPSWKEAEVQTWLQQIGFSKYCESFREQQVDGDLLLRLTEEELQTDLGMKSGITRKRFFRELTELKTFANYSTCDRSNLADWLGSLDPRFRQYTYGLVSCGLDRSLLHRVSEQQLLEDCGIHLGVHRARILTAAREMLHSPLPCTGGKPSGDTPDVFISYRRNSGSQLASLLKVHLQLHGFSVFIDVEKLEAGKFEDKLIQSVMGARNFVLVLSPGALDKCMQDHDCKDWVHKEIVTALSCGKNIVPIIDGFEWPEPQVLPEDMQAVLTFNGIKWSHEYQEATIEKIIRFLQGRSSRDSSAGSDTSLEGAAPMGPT
- test-details: biochemical
- test-parameters: SARM1 IC50 (nM), ARM-SAM-TIR lysate 5 μg/mL from NRK1-HEK293T cells, 2 h pre-incubation, 5 uM NAD+, 2 hr room temperature
reported-property: IC50

A selection of reference data follows.
O=C1C(Cc2ccc(F)nc2)CCN1c1cc(-c2ccncc2)n[nH]1 (single isomer, unassigned) [I-67* (peak 2)] ... < 50 nM
O=C1C(Cc2ccc(Cl)c(F)c2)CCCN1c1nnc(-c2ccncc2)[nH]1 (stereo not shown) [Compound I-10] ... < 50 nM
O=C1C(Cc2ccc(F)nc2)CCN1c1[nH]nc(-c2ccncc2)c1Cl (single isomer, unassigned) [I-32* (peak 1)] ... 51 to 100 nM
O=C1C(Cc2ccc(F)nc2)CCCN1c1[nH]nc(-c2ccncc2)c1F (stereo not shown) [Compound I-27] ... 101 to 500 nM
O=C1C(Cc2ccc(F)nc2)CCN1c1[nH]nc(-c2ccncc2)c1Cl (single isomer, unassigned) [I-32* (peak 2)] ... < 50 nM
O=C1N(c2nnc(-c3ccncc3)[nH]2)CCC1(Cc1ccc(F)c(F)c1)Cc1ccc(F)c(F)c1 [Compound I-12] ... > 1000 nM

Next:
Prompt line: Find the recorded IC50 belonging to [2H]C1(Cc2ccc(F)nc2)C(=O)N(c2cc(-c3ccncc3)n[nH]2)C([2H])([2H])C([2H])([2H])C1([2H])[2H] (stereo not shown) [Compound I-70] and report it.
Response line: 51 to 100 nM
